The reported measurements were obtained from PubChem BioAssay (NCI).

Tested on: A549/ATCC NSCLC
Assay: NCI-60 one-dose screen, 48 h (100 = growth as untreated, 0 = no growth, -100 = all killed)
Conditions: 10 µM unless noted
About 83,000 compounds went through this panel and 20% of them were active in at least one assay; those are over-represented in the sample as a whole.
# label = t if growth >= 80% else f

Look over these answered cases.
- compound: "Nc1c2ccccc2nc2ccccc12 (tested in a mixture with another compound)"
  discrete.label: "f"
- compound: "O=C(OCCBr)c1ccc(Cl)c([N+](=O)[O-])c1"
  discrete.label: "t"
- compound: "O=c1ccn(C2OC(CO)C(O)C2F)c(=O)[nH]1 (stereo not given)"
  discrete.label: "t"
- compound: "O=C1/C(=C/c2ccc([N+](=O)[O-])o2)Oc2ccc(Br)cc21"
  discrete.label: "t"
- compound: "COC1=CC(c2ccc[nH]2)=N/C1=C\\c1[nH]c(C)c(C(=O)CCC(=O)Oc2ccc3c(c2)CCC2C3CC[C@]3(C)C(=O)CC[C@@H]23)c1C (stereo not given in full)"
  discrete.label: "f"
- compound: "CC1=C(C(=O)Nc2ccccc2)C(c2ccc3c(c2)OCCO3)NC(=O)N1 (stereo not given)"
  discrete.label: "t"

Prompt: I'd appreciate it if you could say whether COc1cc(/C=C/C(=O)c2c(-c3ccc(F)cc3)nc3sc(C)nn23)cc(OC)c1OC has growth at least equal to 80%.
Completion: f

Prompt: Does CC(C)[C@H]1CC[C@H]2[C@@H](CC[C@H]3[C@](C)(CN)CCC[C@]23C)C1 have a reported growth of at least 80%?
Completion: t

Prompt: API: above_or_equal(metric=growth, cutoff=80%) for item NC(=O)SCC(=O)Nc1ccccc1-c1ccccc1
Completion: t
